Cited source for all entries: the supplement of paper PMC10567573

B1: ZBTB22 (parent)
chain: AVLAASSPYFHDQVLLKGMTSISL

variants of: B1; assay: protein stability index of a GFP-peptide fusion (GPS, HEK-293T) (PSI 1-6); higher = more stable; settings: c terminus: a fixed tail appended;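 also: lentivirally expressed fusions sorted by FACS into six bins by GFP to DsRed ratio, PSI derived from sequencing read proportions per bin multiplied by bin number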
// class 0 strictly below 2 in protein stability index; class 1 otherwise

# MUTATION ANNOTATION, LABEL VALUE
records = [
    ("T20H", "class 0"),
    ("L16P", "class 1"),
    ("M19R", "class 1"),
    ("S21G", "class 1"),
    ("A4L", "class 1"),
    ("D12Q", "class 1"),
    ("S21L", "class 1"),
    ("L15F", "class 1"),
    ("H11M", "class 1"),
    ("L3Q", "class 0"),
    ("V14C", "class 1"),
    ("L3I", "class 1"),
    ("S6E", "class 0"),
    ("G18A", "class 1"),
    ("K17Y", "class 1"),
    ("S6Q", "class 1"),
    ("A1C", "class 1"),
    ("V14D", "class 0"),
    ("L24N", "class 0"),
    ("F10Y", "class 1"),
]
